Attribution: the supplement of paper PMC10126150

# Tested on: ATP;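 further: ATP exposure 15 min at 22 °C before imaging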
# TEST: switch fluorescence ratio, 500 uM ATP over buffer (Cy3 cluster intensity, sum of 5 cycles each) (fold (ratio)); higher = stronger signal-on switching upon ATP binding; sequences stand for … in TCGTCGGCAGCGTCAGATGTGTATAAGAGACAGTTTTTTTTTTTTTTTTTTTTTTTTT…TC
# EXPERIMENTAL_CONDITIONS: aptamer strand: ATP DNA aptamer (quencher-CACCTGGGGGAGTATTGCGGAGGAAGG + anchor), 100 nM annealed; ATP concentration: 500 uM
Give switch fluorescence ratio for every item shown.

Record GTCTCGGCAT , field switch fluorescence ratio: 1.2

Consider TTTCGGAACC . Its measured switch fluorescence ratio is 1.2

Value of measured switch fluorescence ratio for the entry AAAAGAGGCA : 1.02

The value of switch fluorescence ratio measured for the sequence GTAGTCGGAT turned out to be 1

# switch fluorescence ratio of ATCTGAGAGG = 1

Please fill in: switch fluorescence ratio reported for TAAAGGAAAG = 1.02

For record TTCTAGGGAA the listed switch fluorescence ratio is 0.977

The value of switch fluorescence ratio measured for the sequence TTAGCTGTGC turned out to be 1.02

Kindly note the recorded switch fluorescence ratio for GGGGTCCGGT , which is 1.06
